target.system: recombinant SARS-CoV-2 Main protease (Mpro) (Severe acute respiratory syndrome coronavirus 2 (2019-nCoV) (SARS-CoV-2), UniProt P0DTD1)
protocol.details: Cov Mpro Biochemical IC50 Assay
measurement.parameters: MPro IC50, recombinant SARS-CoV-2 Mpro 7.5 nM, fluorogenic peptide substrate 40 μM
measurement.type: pIC50
# log scale: pIC50 equals minus log10 of the concentration in mol/L

compound: COc1cc(-c2cc3[nH]c(=O)n(-c4cncc5ccccc45)c(=O)c3cc2F)c(Cl)cc1F [Example 650]
pIC50: 7.50
//
compound: COc1cc(-c2cc3[nH]c(=O)n(-c4cncc5ccccc45)c(=O)c3cc2F)c(Cl)cc1F (single isomer, unassigned) [Example 1006]
pIC50: 7.62
//
compound: COc1cc(-c2cc3[nH]c(=O)n(-c4cncc5ccccc45)c(=O)c3cc2F)c(Cl)cc1F (single isomer, unassigned) [Example 1007]
pIC50: 6.48
//
compound: COc1cc(-c2cc3[nH]c(=O)n(-c4cncc(C5CC5)c4)c(=O)c3s2)c(Cl)cc1F [Example 753]
pIC50: 8.16
//
compound: COc1cc(-c2nc3[nH]c(=O)n(-c4cncc5ccccc45)c(=O)c3s2)c(Cl)cc1F [Example 704]
pIC50: 7.46

Ask: Assign pIC50 to the following record: COc1cc(-c2cc3[nH]c(=O)n(-c4cnccc4C)c(=O)c3s2)c(Cl)cc1F [Example 713]
Reply: 8.04

Ask: Write down pIC50 measured for item COc1cc(-c2cc3c(s2)c(=O)n(-c2cncc4c2c(C(F)(F)F)nn4COCC[Si](C)(C)C)c(=O)n3CCC#N)c(Cl)cc1F [Example 1046]
Reply: 7.45

----------
target.system: recombinant SARS-CoV-2 Main protease (Mpro) (Severe acute respiratory syndrome coronavirus 2 (2019-nCoV) (SARS-CoV-2), UniProt P0DTD1)
protocol.details: Cov Mpro Biochemical IC50 Assay
measurement.parameters: recombinant SARS-CoV-2 Mpro 7.5 nM, fluorogenic peptide substrate 40 μM; read-out: MPro IC50
Reported pIC50 by item:
Remember the convention: pIC50 equals -log10 of concentration in molar.

compound: COc1cc(-c2cc3c(s2)c(=O)n(-c2cncc4cnc(C)n24)c(=O)n3CCC#N)c(Cl)cc1F
pIC50: 8.12
--
compound: COc1cc(-c2cc3c(s2)c(=O)n(-c2cncc4ccccc24)c(=O)n3CCC#N)c(C#N)cc1F [Example 1001]
pIC50: 8.30
--
compound: N#CCCn1c(=O)n(-c2cncc(C(F)F)c2)c(=O)c2sc(-c3ccccc3C#N)cc21
pIC50: 7.59

Now turn to the next compound.
Ask: Quick one: give measured pIC50 for COc1cc(-c2cc3c(s2)c(=O)n(-c2cncc4ccccc24)c(=O)n3CCC#N)c(Cl)cc1Cl
Reply: 8.11

----------
target.system: recombinant SARS-CoV-2 Main protease (Mpro) (Severe acute respiratory syndrome coronavirus 2 (2019-nCoV) (SARS-CoV-2), UniProt P0DTD1)
protocol.details: Cov Mpro Biochemical IC50 Assay
measurement.parameters: recombinant SARS-CoV-2 Mpro 7.5 nM, fluorogenic peptide substrate 40 μM; read-out: MPro IC50
Each entry below carries its reported pIC50.
# pIC50: negative log10 of molar concentration; output just the value

Examples with their reported pIC50 follow.
molecule: COc1cc(-c2cc3[nH]c(=O)n(-c4cncc5ncccc45)c(=O)c3s2)c(Cl)cc1F [Example 737]
measurement.type: pIC50
value: 7.75

molecule: O=c1[nH]c2cc(-c3ccccc3Cl)sc2c(=O)n1-c1cncc2cc(Cl)ccc12 [Example 590]
measurement.type: pIC50
value: 6.71

molecule: COc1ccc(Cl)c(-c2cc3[nH]c(=O)n(-c4cncc5cc(F)ccc45)c(=O)c3s2)c1 [Example 580]
measurement.type: pIC50
value: 8.12

Consider the additional molecule presented here.
Ask: Read the entry COc1ccc(Cl)c(-c2cc3[nH]c(=O)n(-c4cncc5ccc(N6CCOCC6)cc45)c(=O)c3cc2F)c1 [Example 434] and write its reported pIC50.
Reply: 7.80

Data origin, for the record: patent US20240116946A1
